- Tested On: HLA-B*40:01
- Assay Explanation: IEDB peptide-MHC binding, purified MHC/direct/fluorescence; filed as Kd, often an IC50 or EC50 that approximates it; bounds were set here for any values at or beyond the usual limits of such assays
- Experimental Conditions: source organism: Vibrio cholerae
pKd: −log10 of the molar value.
Recorded Metric: pKd

Which measured pKd belongs to EGIEGRIAY , tested on HLA-B*40:01?
≤ 4.70

* * *

Please provide measured pKd for the entries that follow.
- Tested On: HLA-A*68:02
- Assay Explanation: IEDB peptide-MHC binding, purified MHC/competitive/radioactivity; filed as Kd, often an IC50 or EC50 that approximates it; bounds were set here for any values at or beyond the usual limits of such assays
- Experimental Conditions: source organism: Trypanosoma cruzi
Numbers only, as −log10 of the molar value.

I'd like to know its pKd. The sequence in question is FVDYNFSLV
7.12

Proceed to GITRPTTLV
4.92

Each sequence below has a recorded value; state its pKd.
1. FANNKFTLV
2. HVGRPTTVV

1. 7.12
2. 7.68

* * *

Please provide measured Kd for the entries that follow.
- Tested On: HLA-A*26:01
- Assay Explanation: IEDB peptide-MHC binding, purified MHC/competitive/radioactivity; filed as Kd, often an IC50 or EC50 that approximates it; bounds were set here for any values at or beyond the usual limits of such assays
- Experimental Conditions: source organism: Mammarenavirus guanaritoense

Here's what some known entries look like.
I'd like to know its Kd. The sequence in question is CYSKSLRDLV
≥ 69.7 µM

Proceed to AVFQPSTGNY
0.776 µM

Each sequence below has a recorded value; state its Kd.
1. SMKSVQNNTV
2. KRHSTKYHL

1. ≥ 69.7 µM
2. ≥ 77.9 µM

* * *

- Tested On: HLA-B*40:01
- Assay Explanation: IEDB peptide-MHC binding, purified MHC/direct/fluorescence; filed as Kd, often an IC50 or EC50 that approximates it; bounds were set here for any values at or beyond the usual limits of such assays
- Experimental Conditions: source organism: Yellow fever virus
Recorded Metric: Kd

Which measured Kd belongs to YFHKRDMRL , tested on HLA-B*40:01?
≥ 20 µM

Now turn to the next sequence.
Which measured Kd belongs to EVRLATMLF , tested on HLA-B*40:01?
≥ 20 µM

* * *

- Tested On: HLA-B*27:05
- Assay Explanation: IEDB peptide-MHC binding, purified MHC/direct/fluorescence; filed as Kd, often an IC50 or EC50 that approximates it; bounds were set here for any values at or beyond the usual limits of such assays
- Experimental Conditions: source organism: Mammarenavirus lassaense
Recorded Metric: pKd
One number for each entry, as −log10 of the molar value.

I'd like to know its pKd. The sequence in question is KRASPILRF
7.06

* * *

Please provide measured Kd for the entries that follow.
- Tested On: HLA-A*68:02
- Assay Explanation: IEDB peptide-MHC binding, purified MHC/competitive/radioactivity; filed as Kd, often an IC50 or EC50 that approximates it; bounds were set here for any values at or beyond the usual limits of such assays
- Experimental Conditions: source organism: Vaccinia virus WR

I'd like to know its Kd. The sequence in question is QIFEVYWYL
0.00889 µM

Proceed to RLLIWAYLSK
≥ 40.6 µM

Now turn to the next sequence.
I'd like to know its Kd. The sequence in question is TVLGLGLSLK
≥ 69.8 µM

* * *

- Tested On: HLA-A*03:01
- Assay Explanation: IEDB peptide-MHC binding, purified MHC/competitive/fluorescence; filed as Kd, often an IC50 or EC50 that approximates it; bounds were set here for any values at or beyond the usual limits of such assays
- Experimental Conditions: source organism: Escherichia coli B171
Recorded Metric: Kd

Which measured Kd belongs to KAIIDTAQF , tested on HLA-A*03:01?
≥ 20 µM

* * *

- Tested On: HLA-B*51:01
- Assay Explanation: IEDB peptide-MHC binding, purified MHC/direct/fluorescence; filed as Kd, often an IC50 or EC50 that approximates it; bounds were set here for any values at or beyond the usual limits of such assays
- Experimental Conditions: source organism: Rickettsia bellii RML369-C
Recorded Metric: Kd
Number plus unit, in that order.

Which measured Kd belongs to NPLEIYQEI , tested on HLA-B*51:01?
132 nM

* * *

- Tested On: HLA-B*46:01
- Assay Explanation: IEDB peptide-MHC binding, purified MHC/competitive/fluorescence; filed as Kd, often an IC50 or EC50 that approximates it; bounds were set here for any values at or beyond the usual limits of such assays
- Experimental Conditions: source organism: Homo sapiens
pKd: −log10 of the molar value.
Please provide measured pKd for the entries that follow.

Here's what some known entries look like.
I'd like to know its pKd. The sequence in question is LMQCWQLLA
≤ 4.70

Proceed to WMFRIRIIL
≤ 4.70

Proceed to FIKDGSSTY
7.78

Next:
I'd like to know its pKd. The sequence in question is LLAMTFWPA
≤ 4.70

* * *

- Tested On: HLA-A*02:12
- Assay Explanation: IEDB peptide-MHC binding, purified MHC/direct/fluorescence; filed as Kd, often an IC50 or EC50 that approximates it; bounds were set here for any values at or beyond the usual limits of such assays
- Experimental Conditions: source organism: Orthohantavirus tulaense
Recorded Metric: Kd

I'd like to know its Kd. The sequence in question is RRAYSGKQY
≥ 20 µM

* * *

- Tested On: HLA-A*03:01
- Assay Explanation: IEDB peptide-MHC binding, purified MHC/direct/fluorescence; filed as Kd, often an IC50 or EC50 that approximates it; bounds were set here for any values at or beyond the usual limits of such assays
- Experimental Conditions: source organism: Orthohantavirus andesense
pKd: −log10 of the molar value.
Recorded Metric: pKd

I'd like to know its pKd. The sequence in question is YLIPSVTSL
≤ 4.70

* * *

- Tested On: HLA-A*32:07
- Assay Explanation: IEDB peptide-MHC binding, purified MHC/competitive/fluorescence; filed as Kd, often an IC50 or EC50 that approximates it; bounds were set here for any values at or beyond the usual limits of such assays
- Experimental Conditions: source organism: Staphylococcus aureus subsp. aureus N315
Recorded Metric: Kd (µM)
Numbers only, in µM.

I'd like to know its Kd. The sequence in question is MVIKWIHER
0.203

* * *

- Tested On: HLA-B*57:01
- Assay Explanation: IEDB peptide-MHC binding, purified MHC/direct/fluorescence; filed as Kd, often an IC50 or EC50 that approximates it; bounds were set here for any values at or beyond the usual limits of such assays
- Experimental Conditions: source organism: Rickettsia bellii RML369-C
pKd: −log10 of the molar value.
Recorded Metric: pKd

I'd like to know its pKd. The sequence in question is NPLEIYQEI
≤ 4.70

* * *

- Tested On: HLA-A*02:17
- Assay Explanation: IEDB peptide-MHC binding, purified MHC/competitive/radioactivity; filed as Kd, often an IC50 or EC50 that approximates it; bounds were set here for any values at or beyond the usual limits of such assays
- Experimental Conditions: source organism: Dengue virus 2 Jamaica/1409/1983
Recorded Metric: Kd (nM)
Give bare numbers, in nM.

I'd like to know its Kd. The sequence in question is FTMRLLSPV
29.8

* * *

- Tested On: HLA-B*46:01
- Assay Explanation: IEDB peptide-MHC binding, purified MHC/competitive/fluorescence; filed as Kd, often an IC50 or EC50 that approximates it; bounds were set here for any values at or beyond the usual limits of such assays
- Experimental Conditions: source organism: Kurkino virus
pKd: −log10 of the molar value.
Recorded Metric: pKd

I'd like to know its pKd. The sequence in question is RRAYSGKQY
≤ 4.70

* * *

- Tested On: HLA-A*24:02
- Assay Explanation: IEDB peptide-MHC binding, purified MHC/competitive/fluorescence; filed as Kd, often an IC50 or EC50 that approximates it; bounds were set here for any values at or beyond the usual limits of such assays
- Experimental Conditions: source organism: Entamoeba histolytica HM-1:IMSS
Recorded Metric: Kd

Which measured Kd belongs to EYLRIPLTI , tested on HLA-A*24:02?
≤ 0.1 nM

* * *

- Tested On: HLA-B*18:01
- Assay Explanation: IEDB peptide-MHC binding, purified MHC/competitive/fluorescence; filed as Kd, often an IC50 or EC50 that approximates it; bounds were set here for any values at or beyond the usual limits of such assays
- Experimental Conditions: source organism: Zaire ebolavirus
pKd: −log10 of the molar value.
Recorded Metric: pKd

Here's what some known entries look like.
I'd like to know its pKd. The sequence in question is LEARVNLSV
≤ 4.70

Proceed to LSDLCNFLV
≤ 4.70

Now turn to the next sequence.
I'd like to know its pKd. The sequence in question is HLPGFGTAF
≤ 4.70

* * *

- Tested On: HLA-B*18:01
- Assay Explanation: IEDB peptide-MHC binding, purified MHC/direct/fluorescence; filed as Kd, often an IC50 or EC50 that approximates it; bounds were set here for any values at or beyond the usual limits of such assays
- Experimental Conditions: source organism: Bacillus cereus G9842
Recorded Metric: Kd

I'd like to know its Kd. The sequence in question is TQIPRQMVL
≥ 20 µM
